test system: HSkMC (human skeletal muscle cells); experiment: cytotoxicity call (relative viability < 0.9); settings: 10 µM
The whole screen tested about 39,000 compounds, of which about 1,500 (3.8%) were called active. This excerpt belongs to a sample that is enriched for actives.
# valid calls are 1 = active, -1 = inactive; nothing else

STRUCTURE_SMILES | LABEL_CLASS
C[C@@H]1CCCCO[C@@H](CN(C)Cc2ccc(C(F)(F)F)cc2)[C@H](C)CN([C@@H](C)CO)C(=O)c2cc(NC(=O)NC3CCCCC3)ccc2O1 | -1
C[C@@H]1CN([C@H](C)CO)C(=O)c2cc(NC(=O)NC3CCCCC3)ccc2O[C@@H](C)CCCCO[C@@H]1CN(C)Cc1ccc(C(F)(F)F)cc1 | -1
C[C@@H]1CCCCO[C@H](CN(C)Cc2ccc(C(F)(F)F)cc2)[C@H](C)CN([C@@H](C)CO)C(=O)c2cc(NC(=O)NC3CCCCC3)ccc2O1 | 1
C[C@@H]1CCCCO[C@H](CN(C)Cc2ccc(C(F)(F)F)cc2)[C@H](C)CN([C@H](C)CO)C(=O)c2cc(NC(=O)NC3CCCCC3)ccc2O1 | 1
CN1CCN(C(=O)C[C@@H]2CC[C@@H]3[C@H](COc4ccc(NC(=O)C5CCCCC5)cc4C(=O)N3C)O2)CC1 | -1

Now look at this one.
Please share the test call associated with "C[C@@H]1CCCCO[C@@H](CN(C)Cc2ccc(C(F)(F)F)cc2)[C@H](C)CN([C@H](C)CO)C(=O)c2cc(NC(=O)NC3CCCCC3)ccc2O1" .
-1
